Subject Of Test: bdSUMO Mut11-MBP fusion protein

Protein	cleavage of the SUMO fusion protein
bdSENP1^Muti (protein) PFVPLTDEDEDNVRHALGGRKKSETLSVHEASHIVITREILQCLNDKEWLNDEVINLYLELLKERELREPNKFLKCHFFNTFFYKKLINGGYDYKSVREWTTRRKLGYNLIDCDKIFVPIHKDVHWCLAVINIKEKKFQYLDSLGYMDMKALRILAKYLVDEVKDKSGKQIDVHAWKQEGVQNLPLQENGWDCGMFMLKYIDFYSRDMELVFGQKHMSYFRRRTAKEILDLKAG	< 50 % cleavage

Where do the numbers come from? From patent US20210261937.
